measurement-protocol: Cmax in Sprague-Dawley rat at 0.2 mg/kg, po by LC-MS/MS analysis
Type: ADME, organism-based
Parameters: dose 0.2 mg/kg, route oral
condition-notes: in vivo
reported-endpoint: Cmax (ng/mL)
Answers are plain numbers, in ng/mL.

>  <molecule>
CC(C)(C)NC(=O)[C@H]1CC[C@H]2[C@@H]3CC[C@H]4NC(=O)C=C[C@]4(C)[C@H]3CC[C@]12C [FINASTERIDE]

>  <Cmax (ng/mL)>
4.19

$$$$

I am curious: what Cmax value has been reported for `Cc1ccc(NC(=O)[C@H]2CC[C@H]3[C@@H]4CC[C@H]5OC(=O)CC[C@]5(C)[C@H]4CC[C@]23C)cc1` ?
6.89

---

Species on record: Rattus norvegicus
measurement-protocol: Inhibition of rat liver 5alpha-reductase at 50 uM using testosterone as substrate incubated for 30 mins measured for 10 mins by fluorescence assay relative to control
So I've got a bunch of molecules here, and I need their inhibition values.
One number for each entry, in %.

Worked set:
>  <molecule>
Cc1ccc(NC(=O)[C@H]2CC[C@H]3[C@@H]4CC[C@H]5OC(=O)CC[C@]5(C)[C@H]4CC[C@]23C)cc1

>  <units-of-measure>
%

>  <inhibition>
98.5

$$$$
>  <molecule>
C[C@]12CCC(=O)O[C@@H]1CC[C@@H]1[C@@H]2CC[C@]2(C)[C@@H](C(=O)Nc3ccc(F)cc3)CC[C@@H]12

>  <units-of-measure>
%

>  <inhibition>
46.9

$$$$
>  <molecule>
CCCCN(CCCC)C(=O)[C@H]1CC[C@H]2[C@@H]3CC[C@H]4OC(=O)CC[C@]4(C)[C@H]3CC[C@]12C

>  <units-of-measure>
%

>  <inhibition>
36.5

$$$$
>  <molecule>
CN(C(=O)[C@H]1CC[C@H]2[C@@H]3CC[C@H]4OC(=O)CC[C@]4(C)[C@H]3CC[C@]12C)c1ccccc1

>  <units-of-measure>
%

>  <inhibition>
84.2

$$$$
>  <molecule>
C[C@]12CCC(=O)O[C@@H]1CC[C@@H]1[C@@H]2CC[C@]2(C)[C@@H](C(=O)N(Cc3ccccc3)Cc3ccccc3)CC[C@@H]12

>  <units-of-measure>
%

>  <inhibition>
69.8

$$$$
>  <molecule>
C[C@]12CCC(=O)O[C@@H]1CC[C@@H]1[C@@H]2CC[C@]2(C)[C@@H](C(=O)N(c3ccccc3)c3ccccc3)CC[C@@H]12

>  <units-of-measure>
%

>  <inhibition>
15.5

$$$$
>  <molecule>
C[C@]12CCC(=O)O[C@@H]1CC[C@@H]1[C@@H]2CC[C@]2(C)[C@@H](C(=O)N3CCCCC3)CC[C@@H]12

>  <units-of-measure>
%

>  <inhibition>
89.3

$$$$
>  <molecule>
CC(C)(C)NC(=O)[C@H]1CC[C@H]2[C@@H]3CC[C@H]4NC(=O)C=C[C@]4(C)[C@H]3CC[C@]12C [FINASTERIDE]

>  <units-of-measure>
%

>  <inhibition>
94.3

$$$$

Shift focus to the following entry.
I am curious: what inhibition value has been reported for `C[C@]12CCC(=O)O[C@@H]1CC[C@@H]1[C@@H]2CC[C@]2(C)[C@@H](C(=O)N(C3CCCCC3)C3CCCCC3)CC[C@@H]12` ?
33.4

---

Test system: PC-3
measurement-protocol: Growth inhibition of human PC3 cells at 80 uM after 48 hrs by MTT assay relative to control
Format: functional
condition-notes: PC-3, 48 h, read-out: GI
So I've got a bunch of molecules here, and I need their inhibition of growth at 80 µM values.
One number for each entry, in %.

Worked set:
>  <molecule>
CC(C)C(=O)Nc1ccc([N+](=O)[O-])c(C(F)(F)F)c1 [FLUTAMIDE]

>  <experimental-result>
21.2

$$$$
>  <molecule>
CC(C)(C)NC(=O)[C@H]1CC[C@H]2[C@@H]3CC[C@H]4NC(=O)C=C[C@]4(C)[C@H]3CC[C@]12C [FINASTERIDE]

>  <experimental-result>
0.4

$$$$
>  <molecule>
CCN(CC)C(=O)[C@H]1CC[C@H]2[C@@H]3CC[C@H]4OC(=O)CC[C@]4(C)[C@H]3CC[C@]12C

>  <experimental-result>
27.9

$$$$

Batch of 4 molecules: report inhibition of growth at 80 µM for each.
1. C[C@]12CCC(=O)O[C@@H]1CC[C@@H]1[C@@H]2CC[C@]2(C)[C@@H](C(=O)Nc3ccc(F)cc3)CC[C@@H]12
2. CC(C)(C)NC(=O)[C@H]1CC[C@H]2[C@@H]3CC[C@H]4OC(=O)CC[C@]4(C)[C@H]3CC[C@]12C
3. C[C@]12CCC(=O)O[C@@H]1CC[C@@H]1[C@@H]2CC[C@]2(C)[C@@H](C(=O)Nc3ccccc3)CC[C@@H]12
4. CN(C(=O)[C@H]1CC[C@H]2[C@@H]3CC[C@H]4OC(=O)CC[C@]4(C)[C@H]3CC[C@]12C)c1ccccc1

1. 46.3
2. 28.1
3. 31.7
4. 35.1

---

measurement-protocol: Elimination half-life in Sprague-Dawley rat at 0.2 mg/kg, po by LC-MS/MS analysis
Assay type: ADME, organism-based
condition-notes: in vivo, read-out: beta t1/2 (converted)
So I've got a bunch of compounds here, and I need their half-life values.
Write the numeric value and follow it with the unit.

>  <compound>
Cc1ccc(NC(=O)[C@H]2CC[C@H]3[C@@H]4CC[C@H]5OC(=O)CC[C@]5(C)[C@H]4CC[C@]23C)cc1

>  <half-life>
4.74 h

$$$$

Shift focus to the following entry.
I am curious: what half-life value has been reported for CC(C)(C)NC(=O)[C@H]1CC[C@H]2[C@@H]3CC[C@H]4NC(=O)C=C[C@]4(C)[C@H]3CC[C@]12C [FINASTERIDE] ?
3.91 h

---

target-entity: 3-oxo-5-alpha-steroid 4-dehydrogenase 1 (Homo sapiens)
Sequence (P18405 whole entry): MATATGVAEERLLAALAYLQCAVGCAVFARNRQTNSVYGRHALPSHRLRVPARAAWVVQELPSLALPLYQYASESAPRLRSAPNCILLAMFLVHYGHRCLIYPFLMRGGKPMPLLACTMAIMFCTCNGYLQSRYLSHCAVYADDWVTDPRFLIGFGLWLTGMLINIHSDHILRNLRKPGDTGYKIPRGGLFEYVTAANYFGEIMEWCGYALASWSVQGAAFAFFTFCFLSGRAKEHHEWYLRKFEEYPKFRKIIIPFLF
measurement-protocol: Inhibition of recombinant human 5alpha-reductase type1 expressed in baculovirus expression system using [7-3H]T as substrate pretreated for 18 hrs followed by substrate addition measured after 90 mins by reverse-phase HPLC method
reported-endpoint: pIC50
Give bare numbers, as −log10 of the molar value.

I am curious: what pIC50 value has been reported for `C[C@]12CCC(=O)N[C@@H]1CC[C@@H]1[C@@H]2CC[C@]2(C)[C@@H](C(=O)Nc3ccccc3)CC[C@@H]12` ?
6.39

---

target-entity: 3-oxo-5-alpha-steroid 4-dehydrogenase 2 (Homo sapiens)
Sequence (P31213 whole entry): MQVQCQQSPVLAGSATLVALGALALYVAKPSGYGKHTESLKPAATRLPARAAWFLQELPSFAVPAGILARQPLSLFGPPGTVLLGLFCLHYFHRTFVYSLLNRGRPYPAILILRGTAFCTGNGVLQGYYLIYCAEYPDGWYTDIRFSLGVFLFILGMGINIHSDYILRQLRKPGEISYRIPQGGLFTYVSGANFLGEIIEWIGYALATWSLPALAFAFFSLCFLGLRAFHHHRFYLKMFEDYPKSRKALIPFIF
measurement-protocol: Inhibition of recombinant human 5alpha-reductase type2 expressed in baculovirus expression system using [7-3H]T as substrate pretreated for 18 hrs followed by substrate addition by reverse-phase HPLC method
reported-endpoint: IC50 (nM)
Numbers only, in nM.

I am curious: what IC50 value has been reported for `C[C@]12CCC(=O)N[C@@H]1CC[C@@H]1[C@@H]2CC[C@]2(C)[C@@H](C(=O)Nc3ccccc3)CC[C@@H]12` ?
15
